- Tested on: 379773-124-R-J2-PDC complex spheroids, viability % test/control
- test.method.notes: Anticancer human tumor 379773-124-R-J2-PDC patient-derived endometrial carcinoma cell line growth inhibition [CLK]; active = viability on the fitted dose curve at most 10% of control; inactive = the rest
- test.settings: second compound 3.16 µM; first compound 1 µM
Hi! Could you answer with just one of these? active, inactive

Q: Give the logged outcome of this assay for the following compound: COC1C=CCC(C)C(C)S(=O)(=O)NC(=O)c2ccc3c(c2)N(CC2CCC21)CC1(CCCc2cc(Cl)ccc21)CO3 (stereo not given) + CN1CCN(c2cc(C(=O)Nc3cc4cc(-c5cnn(C)c5)ccc4cn3)ccn2)CC1
Result: active

Q: Give the logged outcome of this assay for the following compound: CCN1CCN(Cc2ccc(Nc3ncc(F)c(-c4cc(F)c5nc(C)n(C(C)C)c5c4)n3)nc2)CC1 + CNC(=O)c1ccc(Nc2nc(OC3CCCC3)c3c(-c4ccc5nc(C)oc5c4)c[nH]c3n2)c(OC)c1
Result: inactive

Q: Give the logged outcome of this assay for the following compound: C=C(F)C(=O)N1CCN(c2nc(OCC3CCCN3C)nc3c2CCN(c2cccc4cccc(Cl)c24)C3)CC1CC#N (stereo not given) + CNC(=O)c1ccc(Nc2nc(OC3CCCC3)c3c(-c4ccc5nc(C)oc5c4)c[nH]c3n2)c(OC)c1
Result: inactive

Q: Give the logged outcome of this assay for the following compound: O=C(c1cc(Cc2n[nH]c(=O)c3ccccc23)ccc1F)N1CCN(C(=O)C2CC2)CC1 + CNC(=O)c1ccc(Nc2nc(OC3CCCC3)c3c(-c4ccc5nc(C)oc5c4)c[nH]c3n2)c(OC)c1
Result: inactive

Q: Give the logged outcome of this assay for the following compound: CCCS(=O)(=O)Nc1ccc(F)c(C(=O)c2c[nH]c3ncc(-c4ccc(Cl)cc4)cc23)c1F + CNC(=O)c1ccc(Nc2nc(OC3CCCC3)c3c(-c4ccc5nc(C)oc5c4)c[nH]c3n2)c(OC)c1
Result: inactive

----------
Exercise: state measured pIC50 for each of the molecules provided.
- System: 379773-124-R-J2-PDC complex spheroids, viability % test/control
- test.method.notes: Anticancer human tumor 379773-124-R-J2-PDC cell line growth inhibition [CLK];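 also: compound exposure lasted seven days before the viability readout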
- test.settings: curve of first compound; second compound 0.1 µM
Formally, pIC50 is defined as -log10 of the concentration c, with c in mol/L.

Q: Recall and state the measured pIC50 for COc1c(OCCCN2CCOCC2)ccc2c3n(c(=NC(=O)c4cnc(N)nc4)nc12)CCN3 + CN1CCN(c2cc(C(=O)Nc3cc4cc(-c5cnn(C)c5)ccc4cn3)ccn2)CC1 .
Result: 7.30

Q: Recall and state the measured pIC50 for COC1C=CCC(C)C(C)S(=O)(=O)NC(=O)c2ccc3c(c2)N(CC2CCC21)CC1(CCCc2cc(Cl)ccc21)CO3 (stereo not given) + CN1CCN(c2cc(C(=O)Nc3cc4cc(-c5cnn(C)c5)ccc4cn3)ccn2)CC1 .
Result: 5.32

Q: Recall and state the measured pIC50 for CC1(C)CCC(CN2CCN(c3ccc(C(=O)NS(=O)(=O)c4ccc(NCC5CCOCC5)c([N+](=O)[O-])c4)c(Oc4cnc5[nH]ccc5c4)c3)CC2)=C(c2ccc(Cl)cc2)C1 + CN1CCN(c2cc(C(=O)Nc3cc4cc(-c5cnn(C)c5)ccc4cn3)ccn2)CC1 .
Result: 5.30

Q: Recall and state the measured pIC50 for CC(C)CC(NC(=O)C(Cc1ccccc1)NC(=O)c1cnccn1)B(O)O (stereo not given) + CN1CCN(c2cc(C(=O)Nc3cc4cc(-c5cnn(C)c5)ccc4cn3)ccn2)CC1 .
Result: 8.76

----------
- Test system: 379773-124-R-J2-PDC complex spheroids, viability % test/control
- test.method.notes: Anticancer human tumor 379773-124-R-J2-PDC cell line growth inhibition [CLK];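 also: compound exposure lasted seven days before the viability readout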;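 as to viability, T/C: 100% = DMSO vehicle control wells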
- test.settings: second compound 3.16 µM; first compound 0.00949 µM; stronger effect = lower value
quantity.measured: viability, T/C (%)
Reply numerically in %, unit not repeated.

Q: Recall and state the measured viability, T/C for C=CC(=O)Nc1cc(Nc2nccc(-c3cn(C)c4ccccc34)n2)c(OC)cc1N(C)CCN(C)C + CN1CCN(c2cc(C(=O)Nc3cc4cc(-c5cnn(C)c5)ccc4cn3)ccn2)CC1 .
Result: 0.82

Q: Recall and state the measured viability, T/C for CC(C)CC(NC(=O)C(Cc1ccccc1)NC(=O)c1cnccn1)B(O)O (stereo not drawn) + CNC(=O)c1ccc(Nc2nc(OC3CCCC3)c3c(-c4ccc5nc(C)oc5c4)c[nH]c3n2)c(OC)c1 .
Result: 0.11

Q: Recall and state the measured viability, T/C for NC(=O)C(=Cn1cnc(-c2cc(C(F)(F)F)cc(C(F)(F)F)c2)n1)c1cncnc1 + CN1CCN(c2cc(C(=O)Nc3cc4cc(-c5cnn(C)c5)ccc4cn3)ccn2)CC1 .
Result: 2.45

----------
- Tested on: 379773-124-R-J2-PDC complex spheroids, viability % test/control
- test.method.notes: Anticancer human tumor 379773-124-R-J2-PDC cell line growth inhibition [CLK];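 also: compound exposure lasted seven days before the viability readout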;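 as to viability, T/C: 100% = DMSO vehicle control wells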
- test.settings: second compound 0.316 µM; first compound 10 µM; stronger effect = lower value
# note: exactly 7% is not below, so it is NO; use YES for viability, T/C strictly under it

Q: Does this compound meet the criterion viability, T/C < 7%? COc1ccc([C@@H](O)c2cc(-c3ncnc4cc(N5CCOCC5)ccc34)c(F)cc2Cl)nn1 + CNC(=O)c1ccc(Nc2nc(OC3CCCC3)c3c(-c4ccc5nc(C)oc5c4)c[nH]c3n2)c(OC)c1
Result: NO

Q: Does this compound meet the criterion viability, T/C < 7%? Nc1ccn(C2OC(CO)C(O)C2(F)F)c(=O)n1 (stereo not given) + CN1CCN(c2cc(C(=O)Nc3cc4cc(-c5cnn(C)c5)ccc4cn3)ccn2)CC1
Result: YES

Q: Does this compound meet the criterion viability, T/C < 7%? C#Cc1c(F)ccc2cc(O)cc(-c3ncc4c(N5CC6CCC(C5)N6)nc(OCC56CCCN5CC(F)C6)nc4c3F)c12 (stereo not given) + CNC(=O)c1ccc(Nc2nc(OC3CCCC3)c3c(-c4ccc5nc(C)oc5c4)c[nH]c3n2)c(OC)c1
Result: NO

Q: Does this compound meet the criterion viability, T/C < 7%? COc1cccc2c1C(=O)c1c(O)c3c(c(O)c1C2=O)CC(O)(C(=O)CO)CC3OC1CC(N)C(O)C(C)O1 (stereo not given) + CNC(=O)c1ccc(Nc2nc(OC3CCCC3)c3c(-c4ccc5nc(C)oc5c4)c[nH]c3n2)c(OC)c1
Result: YES

Q: Does this compound meet the criterion viability, T/C < 7%? C=C(F)C(=O)N1CCN(c2nc(OCC3CCCN3C)nc3c2CCN(c2cccc4cccc(Cl)c24)C3)CC1CC#N (stereo not given) + CNC(=O)c1ccc(Nc2nc(OC3CCCC3)c3c(-c4ccc5nc(C)oc5c4)c[nH]c3n2)c(OC)c1
Result: YES

----------
- Tested on: 379773-124-R-J2-PDC complex spheroids, viability % test/control
- test.method.notes: Anticancer human tumor 379773-124-R-J2-PDC cell line growth inhibition [CLK];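 also: compound exposure lasted seven days before the viability readout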;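 as to viability, T/C: 100% = DMSO vehicle control wells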
- test.settings: second compound 0.316 µM; first compound 0.316 µM; stronger effect = lower value
quantity.measured: viability, T/C (%)
Reply numerically in %, unit not repeated.

Q: Recall and state the measured viability, T/C for CCc1c2c(nc3ccc(O)cc13)-c1cc3c(c(=O)n1C2)COC(=O)[C@]3(O)CC + CN1CCN(c2cc(C(=O)Nc3cc4cc(-c5cnn(C)c5)ccc4cn3)ccn2)CC1 .
Result: 0.34

Q: Recall and state the measured viability, T/C for CCCS(=O)(=O)Nc1ccc(F)c(C(=O)c2c[nH]c3ncc(-c4ccc(Cl)cc4)cc23)c1F + CNC(=O)c1ccc(Nc2nc(OC3CCCC3)c3c(-c4ccc5nc(C)oc5c4)c[nH]c3n2)c(OC)c1 .
Result: 39

Q: Recall and state the measured viability, T/C for Nc1ccccc1NC(=O)c1ccc(CNC(=O)OCc2cccnc2)cc1 + CN1CCN(c2cc(C(=O)Nc3cc4cc(-c5cnn(C)c5)ccc4cn3)ccn2)CC1 .
Result: 17.5

----------
- Test system: 379773-124-R-J2-PDC complex spheroids, viability % test/control
- test.method.notes: Anticancer human tumor 379773-124-R-J2-PDC cell line growth inhibition [CLK];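 also: compound exposure lasted seven days before the viability readout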;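 as to viability, T/C: 100% = DMSO vehicle control wells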
- test.settings: second compound 0.0316 µM; first compound 0.0316 µM; stronger effect = lower value
quantity.measured: viability, T/C (%)
Reply numerically in %, unit not repeated.

Q: Recall and state the measured viability, T/C for CC1(C)CCC(CN2CCN(c3ccc(C(=O)NS(=O)(=O)c4ccc(NCC5CCOCC5)c([N+](=O)[O-])c4)c(Oc4cnc5[nH]ccc5c4)c3)CC2)=C(c2ccc(Cl)cc2)C1 + CN1CCN(c2cc(C(=O)Nc3cc4cc(-c5cnn(C)c5)ccc4cn3)ccn2)CC1 .
Result: 99.5

Q: Recall and state the measured viability, T/C for Nc1ccn(C2OC(CO)C(O)C2(F)F)c(=O)n1 (stereo not given) + CNC(=O)c1ccc(Nc2nc(OC3CCCC3)c3c(-c4ccc5nc(C)oc5c4)c[nH]c3n2)c(OC)c1 .
Result: 6.55

Q: Recall and state the measured viability, T/C for CCc1c2c(nc3ccc(O)cc13)-c1cc3c(c(=O)n1C2)COC(=O)[C@]3(O)CC + CNC(=O)c1ccc(Nc2nc(OC3CCCC3)c3c(-c4ccc5nc(C)oc5c4)c[nH]c3n2)c(OC)c1 .
Result: 2.79

Q: Recall and state the measured viability, T/C for O=c1[nH]cc(F)c(=O)[nH]1 + CN1CCN(c2cc(C(=O)Nc3cc4cc(-c5cnn(C)c5)ccc4cn3)ccn2)CC1 .
Result: 92.2

Q: Recall and state the measured viability, T/C for CC(CO)NC(=O)c1cc(-c2ccc(Cl)cc2)nn(-c2cnn(C)c2)c1=O (stereo not given) + CN1CCN(c2cc(C(=O)Nc3cc4cc(-c5cnn(C)c5)ccc4cn3)ccn2)CC1 .
Result: 100
